Form field: IC50 (one value per entry).
# measurementTarget: HLA B*0702 (human)
# testMethodNotes: competition with radiolabeled probe peptide, purified MHC
Answer with a number only, understood to be in nM.

binder	endpointValue
GPSLRTTTV (modifications not checked) [NS11071-1079]	2.2
VPMAGPLVAG (modifications not checked) [NS2B1373-1382]	115

Alright, here's another binder for you.
Per the record, EPDGPTPEL (modifications not checked) [NS31648-1656] has IC50 of 299

Sourced from patent US20160130305A1
